Below is a list of entries, each paired with its recorded viability, T/C value.
test system: 616215-338-R-J1-PDC spheroids with HUVEC/MSC, viability; test: Anticancer human tumor 616215-338-R-J1-PDC patient-derived colon adenocarcinoma cell line growth inhibition [PI3K]; settings: second compound 0.0316 µM; first compound 0.1 µM; hits give low values
# number only, unit % dropped from output

Compound	Endpoint unit	viability, T/C
C#Cc1c(F)ccc2cc(O)cc(-c3ncc4c(N5CC6CCC(C5)N6)nc(OCC56CCCN5CC(F)C6)nc4c3F)c12 (stereo not given) + CC(Nc1ccc2c(c1)OCCn1cc(N3C(=O)OCC3C(F)F)nc1-2)C(N)=O	%	95.4
CC(C)n1nc(-c2ccc3oc(N)nc3c2)c2c(N)ncnc21 + COc1c(OCCCN2CCOCC2)ccc2c3n(c(=NC(=O)c4cnc(N)nc4)nc12)CCN3	%	39
CC1(C)CCC(CN2CCN(c3ccc(C(=O)NS(=O)(=O)c4ccc(NCC5CCOCC5)c([N+](=O)[O-])c4)c(Oc4cnc5[nH]ccc5c4)c3)CC2)=C(c2ccc(Cl)cc2)C1 + CC(Nc1ncnc2nc[nH]c12)c1cc2cccc(Cl)c2c(=O)n1-c1ccccc1	%	105
CNC(=O)c1ccc(N2C(=S)N(c3ccc(C#N)c(C(F)(F)F)c3)C(=O)C2(C)C)cc1F + COc1c(OCCCN2CCOCC2)ccc2c3n(c(=NC(=O)c4cnc(N)nc4)nc12)CCN3	%	98.1

INPUT: Recall the recorded viability, T/C for Cn1ncnc1[C@H]1c2n[nH]c(=O)c3cc(F)cc(c23)N[C@@H]1c1ccc(F)cc1 + Cc1nc(NC(=O)N2CCCC2C(N)=O)sc1-c1ccnc(C(C)(C)C(F)(F)F)c1 with 616215-338-R-J1-PDC spheroids with HUVEC/MSC, viability and state it.
OUTPUT: 99.1

* * *

system: 616215-338-R-J1-PDC spheroids with HUVEC/MSC, viability; assay: Anticancer human tumor 616215-338-R-J1-PDC cell line growth inhibition [PI3K]; details: second compound 0.316 µM; first compound 1 µM; hits give low values;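 also: spheroids exposed to agents for seven days before the viability read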
Experimental readout: viability, T/C (%)
Numbers only; they are read as %.

The following compounds have reported results that may help.
Compound	Endpoint unit	viability, T/C
CNC(=O)c1ccc(N2C(=S)N(c3ccc(C#N)c(C(F)(F)F)c3)C(=O)C2(C)C)cc1F + CC(Nc1ncnc2nc[nH]c12)c1cc2cccc(Cl)c2c(=O)n1-c1ccccc1	%	97.1
CC(Cn1ccc(-c2ccc(C#N)c(Cl)c2)n1)NC(=O)c1cc(C(C)O)[nH]n1 (centres undefined) + Cc1nc(NC(=O)N2CCCC2C(N)=O)sc1-c1ccnc(C(C)(C)C(F)(F)F)c1	%	99.7
C=CC(=O)N1CCN(c2nc(=O)n(-c3c(C)ccnc3C(C)C)c3nc(-c4c(O)cccc4F)c(F)cc23)C(C)C1 (centres undefined) + CC(Nc1ncnc2nc[nH]c12)c1cc2cccc(Cl)c2c(=O)n1-c1ccccc1	%	96.5

INPUT: Param item = CC(C)NCC(C(=O)N1CCN(c2ncnc3c2C(C)CC3O)CC1)c1ccc(Cl)cc1 (centres undefined) + CC(Nc1ncnc2nc[nH]c12)c1cc2cccc(Cl)c2c(=O)n1-c1ccccc1 ; retrieve measured viability, T/C.
OUTPUT: 94

* * *

system: 616215-338-R-J1-PDC spheroids with HUVEC/MSC, viability; assay: Anticancer human tumor 616215-338-R-J1-PDC cell line growth inhibition [PI3K]; settings: second compound 0.01 µM; first compound 0.0316 µM; hits give low values;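 also: spheroids exposed to agents for seven days before the viability read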
Experimental readout: viability, T/C (%)
Number in %, nothing else.

Compound	Target or test system	viability, T/C [%]
CC(Cn1ccc(-c2ccc(C#N)c(Cl)c2)n1)NC(=O)c1cc(C(C)O)[nH]n1 (stereo not drawn) + COc1c(OCCCN2CCOCC2)ccc2c3n(c(=NC(=O)c4cnc(N)nc4)nc12)CCN3	616215-338-R-J1-PDC spheroids with HUVEC/MSC, viability	99.4
Cn1ncc(Cl)c1-c1cc(C(=O)NC(CN)Cc2cccc(F)c2)sc1Cl (stereo not drawn) + CC(Nc1ccc2c(c1)OCCn1cc(N3C(=O)OCC3C(F)F)nc1-2)C(N)=O	616215-338-R-J1-PDC spheroids with HUVEC/MSC, viability	87.6
CCCS(=O)(=O)Nc1ccc(F)c(C(=O)c2c[nH]c3ncc(-c4ccc(Cl)cc4)cc23)c1F + COc1c(OCCCN2CCOCC2)ccc2c3n(c(=NC(=O)c4cnc(N)nc4)nc12)CCN3	616215-338-R-J1-PDC spheroids with HUVEC/MSC, viability	105
CC(=O)c1c(C)c2cnc(Nc3ccc(N4CCNCC4)cn3)nc2n(C2CCCC2)c1=O + COc1c(OCCCN2CCOCC2)ccc2c3n(c(=NC(=O)c4cnc(N)nc4)nc12)CCN3	616215-338-R-J1-PDC spheroids with HUVEC/MSC, viability	101
CC1(C)CCC(CN2CCN(c3ccc(C(=O)NS(=O)(=O)c4ccc(NCC5CCOCC5)c([N+](=O)[O-])c4)c(Oc4cnc5[nH]ccc5c4)c3)CC2)=C(c2ccc(Cl)cc2)C1 + COc1c(OCCCN2CCOCC2)ccc2c3n(c(=NC(=O)c4cnc(N)nc4)nc12)CCN3	616215-338-R-J1-PDC spheroids with HUVEC/MSC, viability	84.7

INPUT: What value of viability, T/C has been recorded for this entry: CNC(=O)c1ccc(N2C(=S)N(c3ccc(C#N)c(C(F)(F)F)c3)C(=O)C2(C)C)cc1F + COc1c(OCCCN2CCOCC2)ccc2c3n(c(=NC(=O)c4cnc(N)nc4)nc12)CCN3
OUTPUT: 98.7

INPUT: Entry under review: Cn1nccc1Nc1nccc(-c2ccn(C(CO)c3ccc(Cl)c(F)c3)c(=O)c2)n1 (stereo not drawn) + COc1c(OCCCN2CCOCC2)ccc2c3n(c(=NC(=O)c4cnc(N)nc4)nc12)CCN3 . Reported viability, T/C?
OUTPUT: 96.7

INPUT: // returns reported viability, T/C for input CC(C)n1nc(-c2ccc3oc(N)nc3c2)c2c(N)ncnc21 + CC(Nc1ccc2c(c1)OCCn1cc(N3C(=O)OCC3C(F)F)nc1-2)C(N)=O
OUTPUT: 113

INPUT: Any idea what viability, T/C was measured for CCCS(=O)(=O)Nc1ccc(F)c(C(=O)c2c[nH]c3ncc(-c4ccc(Cl)cc4)cc23)c1F + CC(Nc1ccc2c(c1)OCCn1cc(N3C(=O)OCC3C(F)F)nc1-2)C(N)=O ?
OUTPUT: 97.9

* * *

system: 616215-338-R-J1-PDC spheroids with HUVEC/MSC, viability; experiment: Anticancer human tumor 616215-338-R-J1-PDC cell line growth inhibition [PI3K]; details: second compound 1 µM; first compound 3.16 µM; hits give low values;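 also: spheroids exposed to agents for seven days before the viability read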
Experimental readout: viability, T/C (%)
Response body: numeric value in %, unit text excluded.

Compound	Endpoint unit	viability, T/C
C=CC(=O)N1CCN(c2nc(=O)n(-c3c(C)ccnc3C(C)C)c3nc(-c4c(O)cccc4F)c(F)cc23)C(C)C1 (stereo not drawn) + CC(Nc1ccc2c(c1)OCCn1cc(N3C(=O)OCC3C(F)F)nc1-2)C(N)=O	%	90.6

INPUT: I would be grateful if you could share the reported viability, T/C for C=CC(=O)N1CCN(c2nc(=O)n(-c3c(C)ccnc3C(C)C)c3nc(-c4c(O)cccc4F)c(F)cc23)C(C)C1 (stereo not drawn) + CC(Nc1ncnc2nc[nH]c12)c1cc2cccc(Cl)c2c(=O)n1-c1ccccc1 .
OUTPUT: 94

INPUT: Which viability, T/C is listed for CC1(C)CCC(CN2CCN(c3ccc(C(=O)NS(=O)(=O)c4ccc(NCC5CCOCC5)c([N+](=O)[O-])c4)c(Oc4cnc5[nH]ccc5c4)c3)CC2)=C(c2ccc(Cl)cc2)C1 + CC(Nc1ncnc2nc[nH]c12)c1cc2cccc(Cl)c2c(=O)n1-c1ccccc1 ?
OUTPUT: 80.8

INPUT: Reported viability, T/C, compound CNC(=O)c1ccc(N2C(=S)N(c3ccc(C#N)c(C(F)(F)F)c3)C(=O)C2(C)C)cc1F + CC(Nc1ccc2c(c1)OCCn1cc(N3C(=O)OCC3C(F)F)nc1-2)C(N)=O : ____
OUTPUT: 104

INPUT: Please report the recorded viability, T/C for CC1(C)CCC(Nc2ncc(C(F)(F)F)c(-c3c[nH]c4c(P(C)(C)=O)c(C#N)ccc34)n2)CN1 (stereo not drawn) + COc1c(OCCCN2CCOCC2)ccc2c3n(c(=NC(=O)c4cnc(N)nc4)nc12)CCN3 .
OUTPUT: 8.67

INPUT: Report viability, T/C for CC1(C)CCC(Nc2ncc(C(F)(F)F)c(-c3c[nH]c4c(P(C)(C)=O)c(C#N)ccc34)n2)CN1 (stereo not drawn) + CC(Nc1ncnc2nc[nH]c12)c1cc2cccc(Cl)c2c(=O)n1-c1ccccc1 please.
OUTPUT: 46.5

INPUT: Using the record for CNC(=O)c1ccc(N2C(=S)N(c3ccc(C#N)c(C(F)(F)F)c3)C(=O)C2(C)C)cc1F + COc1c(OCCCN2CCOCC2)ccc2c3n(c(=NC(=O)c4cnc(N)nc4)nc12)CCN3 , report its viability, T/C.
OUTPUT: 25.6

INPUT: I'd like to know its viability, T/C. The compound in question is C#Cc1c(F)ccc2cc(O)cc(-c3ncc4c(N5CC6CCC(C5)N6)nc(OCC56CCCN5CC(F)C6)nc4c3F)c12 (stereo not drawn) + CC(Nc1ncnc2nc[nH]c12)c1cc2cccc(Cl)c2c(=O)n1-c1ccccc1
OUTPUT: 122
